Target: Cad1 (UniProt P24813)
Sequence: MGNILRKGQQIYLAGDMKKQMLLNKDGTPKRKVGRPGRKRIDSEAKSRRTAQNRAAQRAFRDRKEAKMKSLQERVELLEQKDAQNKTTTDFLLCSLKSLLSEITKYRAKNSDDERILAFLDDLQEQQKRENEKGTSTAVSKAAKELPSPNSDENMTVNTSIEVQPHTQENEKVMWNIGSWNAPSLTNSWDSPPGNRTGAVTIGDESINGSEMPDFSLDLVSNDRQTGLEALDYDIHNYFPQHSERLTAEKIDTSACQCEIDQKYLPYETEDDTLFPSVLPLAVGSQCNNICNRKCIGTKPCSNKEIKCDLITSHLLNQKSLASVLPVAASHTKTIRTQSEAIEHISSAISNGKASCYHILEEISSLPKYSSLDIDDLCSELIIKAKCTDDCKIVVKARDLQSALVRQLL
Assay: PBM E-score (8-mer binding enrichment) (E-score (-0.5 to 0.5)); higher = stronger / more preferred TF binding
Details: protein concentration: 100 nM; construct: GST-full length
The full ranking holds about 33,000 sequences; the median of “E-score (-0.5 to 0.5)” is about -0.0014, and the highest 2% start at about 0.25. The full list was thinned out, with the highest values kept by preference.
Kindly supply the reported PBM E-score values for the records listed here.
Give the value as a plain number.

[ask] Fill in the blank: the reported PBM E-score of `ACGCTGAC` is ____.
[reply] 0.3

[ask] Fill in the blank: the reported PBM E-score of `CTGCTGTC` is ____.
[reply] -0.0811

[ask] Fill in the blank: the reported PBM E-score of `CAGCTGTC` is ____.
[reply] 0.253

[ask] Fill in the blank: the reported PBM E-score of `ACGCTGTC` is ____.
[reply] -0.187

[ask] Fill in the blank: the reported PBM E-score of `CGCGCTAA` is ____.
[reply] 0.256

[ask] Fill in the blank: the reported PBM E-score of `ATTATATA` is ____.
[reply] 0.306

[ask] Fill in the blank: the reported PBM E-score of `ACTGTAAG` is ____.
[reply] 0.167

[ask] Fill in the blank: the reported PBM E-score of `ACGCTGAT` is ____.
[reply] 0.166

[ask] Fill in the blank: the reported PBM E-score of `AATGTAAT` is ____.
[reply] 0.324

[ask] Fill in the blank: the reported PBM E-score of `AACGTAAC` is ____.
[reply] -0.00693

[ask] Fill in the blank: the reported PBM E-score of `CAGCTGAG` is ____.
[reply] 0.0708

[ask] Fill in the blank: the reported PBM E-score of `AGTGATGC` is ____.
[reply] -0.0338

[ask] Fill in the blank: the reported PBM E-score of `AGCGCTAA` is ____.
[reply] 0.212

[ask] Fill in the blank: the reported PBM E-score of `CTGCTGAC` is ____.
[reply] 0.275

[ask] Fill in the blank: the reported PBM E-score of `AGTATATA` is ____.
[reply] 0.285

[ask] Fill in the blank: the reported PBM E-score of `AATGTAAG` is ____.
[reply] 0.264

[ask] Fill in the blank: the reported PBM E-score of `AATGTAAC` is ____.
[reply] 0.0359

[ask] Fill in the blank: the reported PBM E-score of `AGTAAACT` is ____.
[reply] 0.105

[ask] Fill in the blank: the reported PBM E-score of `CGCGCTAG` is ____.
[reply] 0.238

[ask] Fill in the blank: the reported PBM E-score of `CGCGCTAC` is ____.
[reply] 0.26

[ask] Fill in the blank: the reported PBM E-score of `GGCGCTAA` is ____.
[reply] -0.0255

[ask] Fill in the blank: the reported PBM E-score of `ATTATATC` is ____.
[reply] 0.0433
